Target: Melanocortin receptor 3 (Homo sapiens, UniProt P41968)
Sequence (P41968 whole entry): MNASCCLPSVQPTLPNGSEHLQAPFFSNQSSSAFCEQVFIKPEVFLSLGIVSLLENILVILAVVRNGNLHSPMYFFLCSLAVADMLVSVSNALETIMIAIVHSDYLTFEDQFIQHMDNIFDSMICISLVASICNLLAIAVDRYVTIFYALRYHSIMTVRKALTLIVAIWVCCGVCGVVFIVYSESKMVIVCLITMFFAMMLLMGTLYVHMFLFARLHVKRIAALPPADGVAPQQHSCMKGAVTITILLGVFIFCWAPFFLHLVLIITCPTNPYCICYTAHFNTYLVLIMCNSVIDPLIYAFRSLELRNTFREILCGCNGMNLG
Assay: Activity against hMC3R transfected in HEK293 cells by intracellular cAMP accumulation
Format: functional, cell-based
RECORDED METRIC: %max (%)
Dear colleague, please return just the value in %, with no unit written.

Below are worked cases with known answers.
SMILES NOTATION	UNIT LABEL	RESULT VALUE
CCCC[C@@H]1NC(=O)CC[C@@H](C(N)=O)NC(=O)[C@H](Cc2c[nH]c3ccccc23)NC(=O)[C@H](CCCN=C(N)N)NC(=O)[C@@H](Cc2ccc3ccccc3c2)NC(=O)[C@@H]2CCCN2C1=O	%	0
CCCC[C@@H]1NC(=O)CC[C@@H](C(N)=O)NC(=O)[C@H](Cc2c[nH]c3ccccc23)NC(=O)[C@H](CCCN=C(N)N)NC(=O)[C@@H](Cc2ccccc2)NC(=O)[C@H](CC(=O)O)NC1=O	%	0
CCCC[C@@H]1NC(=O)CC[C@@H](C(N)=O)NC(=O)[C@H](Cc2c[nH]c3ccccc23)NC(=O)[C@H](CCCN=C(N)N)NC(=O)[C@@H](Cc2ccc3ccccc3c2)NC(=O)[C@H](CCC(N)=O)NC1=O	%	0

Reported %max, compound `CCCC[C@@H]1NC(=O)CC[C@@H](C(N)=O)NC(=O)[C@H](Cc2c[nH]c3ccccc23)NC(=O)[C@H](CCCN=C(N)N)NC(=O)[C@@H](Cc2ccc3ccccc3c2)NC(=O)[C@@H](CCCN=C(N)N)NC1=O` : ____
0

Another compound: `CCCC[C@@H]1NC(=O)CC[C@@H](C(N)=O)NC(=O)[C@H](Cc2c[nH]c3ccccc23)NC(=O)[C@H](CCCN=C(N)N)NC(=O)[C@@H](Cc2ccccc2)NC(=O)[C@@H](CCC(=O)O)NC1=O`
54
